Biological target: T1, human FPN1 C-terminally fused with GFP (human, UniProt Q9NP59 1-571, GFP reporter fused to the C-terminus ("FPN1 is C-terminally fused with GFP"). It is left out because the patent gives no letters for it.)
T1 sequence: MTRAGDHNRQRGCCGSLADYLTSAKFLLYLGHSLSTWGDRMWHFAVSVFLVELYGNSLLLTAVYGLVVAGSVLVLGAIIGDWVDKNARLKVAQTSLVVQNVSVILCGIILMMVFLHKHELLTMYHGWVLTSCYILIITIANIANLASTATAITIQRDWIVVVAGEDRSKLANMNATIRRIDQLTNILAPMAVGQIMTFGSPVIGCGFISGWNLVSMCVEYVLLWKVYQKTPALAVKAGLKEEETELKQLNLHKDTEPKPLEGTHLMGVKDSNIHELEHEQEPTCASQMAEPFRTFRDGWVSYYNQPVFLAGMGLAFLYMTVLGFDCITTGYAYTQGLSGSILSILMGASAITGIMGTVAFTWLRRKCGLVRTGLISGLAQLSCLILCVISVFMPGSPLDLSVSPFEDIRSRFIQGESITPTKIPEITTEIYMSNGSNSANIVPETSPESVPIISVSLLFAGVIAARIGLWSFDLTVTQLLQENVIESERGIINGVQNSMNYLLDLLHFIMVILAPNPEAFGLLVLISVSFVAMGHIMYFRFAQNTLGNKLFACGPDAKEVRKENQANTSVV
Test: cell-based or functional assay
Collected Top % Inhibition of hepcidin-25-induced internalization and degradation of FPN1-GFP values appear next to each entry.
Provide only the numeric value, understood in %.

Requested field: Top % Inhibition of hepcidin-25-induced internalization and degradation of FPN1-GFP. Item: Mab 4A10-3 (antibody, human IgG4 S228P, kappa, F234A L235A, V domains shown) VH: QVQLVQSGAEVKKPGSSVKVSCKASGYAFTSFLIEWVRQAPGQGLEWMGTSNPRTGGRKYKEKFRGRVTITADKSTSTAYMELSSLRSEDTAVYYCAREFFDYWGQGTTVTVSS VL: DIQMTQSPSSLSASVGDRVTITCRASKSISKYTAWYQQKPGKAPKLLIYAGSKLHWGVPSRFSGSGSGTDFTLTISSLQPEDFATYYCQQHNEYPYTFGGGTKVEIKR
85.9

Requested field: Top % Inhibition of hepcidin-25-induced internalization and degradation of FPN1-GFP. Item: Mab Combi11 (antibody, human IgG4 S228P, kappa, F234A L235A, V domains shown) VH: QVQLVQSGAEVKKPGSSVKVSCKASGYAFTSFLIEWVRQAPGQGLEWMGTSNPRTGRTKYKSKFRGRVTITADKSTSTAYMELSSLRSEDTAVYYCAREFFDYWGQGTTVTVSS VL: DIQMTQSPSSLSASVGDRVTITCRASKSISKYTAWYQQKPGKAPKLLIYAGSKRHWGVPSRFSGSGSGTDFTLTISSLQPEDFATYYCQQHNEYPYTFGGGTKVEIKR
92.6

Requested field: Top % Inhibition of hepcidin-25-induced internalization and degradation of FPN1-GFP. Item: Mab L2.2-4 (antibody, human IgG4 S228P, kappa, F234A L235A, V domains shown) VH: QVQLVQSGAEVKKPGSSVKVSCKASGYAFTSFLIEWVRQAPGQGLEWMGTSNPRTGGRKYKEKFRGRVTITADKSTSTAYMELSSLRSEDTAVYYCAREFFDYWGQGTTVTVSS VL: DIQMTQSPSSLSASVGDRVTITCRASKSISKYTAWYQQKPGKAPKLLIYAGSKLRSGVPSRFSGSGSGTDFTLTISSLQPEDFATYYCQQHNEYPYTFGGGTKVEIKR
81.6

Requested field: Top % Inhibition of hepcidin-25-induced internalization and degradation of FPN1-GFP. Item: Mab 1G9 (antibody, mouse IgG1, kappa, V domains shown, also called mouse 1G9; murine Mab 1G9) VH: QVQLKQSGAELVRPGTSVKVSCKASGYAFTSFLIEWLKQRPGQGLEWIGTINPRTGGTKYNEKFRGKATLTADKSSSTAYMQLNSLTSDDSAVYFCVREFFDYWGQGTSLTVSS VL: ETTVTQSPSYLAASPGETITINCRASKSISKYLAWFQEKPGKTNKLLIYAGSKLHSGIPSRFSGSGSGTDFTLTISSLEPEDFAMYYCFQHNEYPYTFGGGTKLELKR
69

Requested field: Top % Inhibition of hepcidin-25-induced internalization and degradation of FPN1-GFP. Item: Mab 3D8 (antibody, human IgG4 S228P, kappa, F234A L235A, V domains shown, Humanized form of mouse 1G9 with human heavy chain framework VH1-69 and light chain framework O2; also called human 3D8) VH: QVQLVQSGAEVKKPGSSVKVSCKASGYAFTSFLIEWVRQAPGQGLEWMGTSNPRTGGTKYKEKFRGRVTITADKSTSTAYMELSSLRSEDTAVYYCAREFFDYWGQGTTVTVSS VL: DIQMTQSPSSLSASVGDRVTITCRASKSISKYTAWYQQKPGKAPKLLIYAGSKLHSGVPSRFSGSGSGTDFTLTISSLQPEDFATYYCQQHNEYPYTFGGGTKVEIKR
86.8

Requested field: Top % Inhibition of hepcidin-25-induced internalization and degradation of FPN1-GFP. Item: Mab 34A9 (antibody, mouse IgG1, kappa, V domains shown, Mouse monoclonal antibody against human FPN1; also called mouse 34A9; mouse Mab 34A9) VH: QVQLKQSGAELVRPGTSVKVSCKASGYAFTNFLIEWLKQRPGQGLEWIGTINPETGGTKYNEKFRGKATLTADKSSSTAYMQLNSLTSDDSAVYFCVREFFDYWGQGTSLTVSS VL: ETTVTQSPSYLAASPGETITINCRASKSISKYLAWFQEKPGKTNKLLIYAGSTLHSGIPSRFSGSGSGTDFTLTISSLEPEDFAMYYCQQHNEYPYTFGGGTKLELKR
55.2
